- experimental.system: hMC3-R (human) (UniProt P41968)
- Sequence (P41968 whole entry): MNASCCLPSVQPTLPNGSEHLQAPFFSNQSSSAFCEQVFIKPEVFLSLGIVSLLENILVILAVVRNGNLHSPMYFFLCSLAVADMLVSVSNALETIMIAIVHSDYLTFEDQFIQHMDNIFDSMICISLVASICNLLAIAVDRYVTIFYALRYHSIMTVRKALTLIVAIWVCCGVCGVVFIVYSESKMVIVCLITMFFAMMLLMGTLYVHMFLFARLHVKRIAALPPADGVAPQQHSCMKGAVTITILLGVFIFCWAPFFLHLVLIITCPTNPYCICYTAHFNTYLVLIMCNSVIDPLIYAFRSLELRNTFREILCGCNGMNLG
- test.details: competition with [125I]-NDP-α-MSH, CHO-K1 membranes
pKi: −log10 of the molar value. Bridge positions count the residues as written; N and C are the ends. Square brackets hold non-standard residues; d marks the D form. Ends that are not written are not given here. Bip = N[C@@H](Cc1ccc(-c2ccccc2)cc1)C(=O)O; d2Nal = N[C@H](Cc1ccc2ccccc2c1)C(=O)O; hArg = N=C(N)NCCCC[C@H](N)C(=O)O; Nle = CCCC[C@H](N)C(=O)O; Ahx = NCCCCCC(=O)O; βAla = NCCC(=O)O
Cut-off 7 on pKi, inclusive. At or above means Condition met; below means Condition not met.

[
  {
    "binder": "[dF]CH[dF][hArg][Bip][βAla][dC]T-NH2 (disulfide 2-8; N-terminus assumed; SMILES C[C@@H](O)[C@H](NC(=O)[C@H]1CSSC[C@H](NC(=O)[C@H](N)Cc2ccccc2)C(=O)N[C@@H](Cc2c[nH]cn2)C(=O)N[C@H](Cc2ccccc2)C(=O)N[C@@H](CCCCNC(=N)N)C(=O)N[C@@H](Cc2ccc(-c3ccccc3)cc2)C(=O)NCCC(=O)N1)C(N)=O) [D-Phe-c(Cys-His-D-Phe-hArg-Bip-β-Ala-D-Cys)-Thr-NH2]",
    "label": "Condition not met"
  }
]

Task: Is reported pKi greater than or equal to 7 here: Ac-[Nle]C[dA]H[dF]RW[dA]C-NH2 (disulfide 2-9; SMILES CCCC[C@H](NC(C)=O)C(=O)N[C@H]1CSSC[C@@H](C(N)=O)NC(=O)[C@@H](C)NC(=O)[C@H](Cc2c[nH]c3ccccc23)NC(=O)[C@H](CCCNC(=N)N)NC(=O)[C@@H](Cc2ccccc2)NC(=O)[C@H](Cc2c[nH]cn2)NC(=O)[C@@H](C)NC1=O) [Ac-Nle-c(Cys-D-Ala-His-D-Phe-Arg-Trp-D-Ala-Cys)-NH2]
Output: Condition not met

Task: // inclusive: pKi at least 7? input: Ac-[Nle]CH[d2Nal]RW[Ahx]C-NH2 (disulfide 2-8) [Ac-Nle-c(Cys-His-D-2-Nal-Arg-Trp-Ahx-Cys)-NH2]
Output: Condition met

Task: pKi >= 7 for [dF]CH[dF]RW[βAla][dC]T-NH2 (disulfide 2-8; N-terminus assumed; SMILES C[C@@H](O)[C@H](NC(=O)[C@H]1CSSC[C@H](NC(=O)[C@H](N)Cc2ccccc2)C(=O)N[C@@H](Cc2c[nH]cn2)C(=O)N[C@H](Cc2ccccc2)C(=O)N[C@@H](CCCNC(=N)N)C(=O)N[C@@H](Cc2c[nH]c3ccccc23)C(=O)NCCC(=O)N1)C(N)=O) [D-Phe-c(Cys-His-D-Phe-Arg-Trp-β-Ala-D-Cys)-Thr-NH2] ?
Output: Condition met
